These entries and their values trace back to patent US20130109718A1.

Biological target: UniProtKB Q8TDU6
Sequence (Q8TDU6 1-330): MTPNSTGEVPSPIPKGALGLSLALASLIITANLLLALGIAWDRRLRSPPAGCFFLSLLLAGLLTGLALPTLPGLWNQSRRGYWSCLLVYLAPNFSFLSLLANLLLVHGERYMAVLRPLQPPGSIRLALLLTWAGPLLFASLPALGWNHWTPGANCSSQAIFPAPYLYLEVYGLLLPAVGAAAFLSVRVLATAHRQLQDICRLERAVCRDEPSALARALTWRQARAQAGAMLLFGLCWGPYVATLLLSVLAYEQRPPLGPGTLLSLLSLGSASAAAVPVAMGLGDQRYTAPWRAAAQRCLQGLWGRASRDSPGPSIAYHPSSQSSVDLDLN
Experiment: functional cAMP assay in CHO-dhfr(minus) cells expressing human GPBAR1 receptors
Details: CHO-dhfr(minus) cells expressing human GPBAR1, 30 min at 30° C.
Measure: EC50 (µM)

Some compounds with known EC50 results, for comparison:
>  <Compound>
Cc1ccccc1C(C/C(=N\O)[C@H]1CC[C@](C)(O)CC1)c1ccc(S(C)(=O)=O)cc1 (stereo partly drawn) [Example 17]

>  <Assayed Target>
UniProtKB Q8TDU6

>  <Unit Tag>
µM

>  <EC50>
9.81

$$$$
>  <Compound>
Cc1ccccc1C(C/C(=N/O)C1CCC(O)CC1)c1ccc(S(C)(=O)=O)cc1 (stereo not drawn) [Example 16]

>  <Assayed Target>
UniProtKB Q8TDU6

>  <Unit Tag>
µM

>  <EC50>
7.72

$$$$
>  <Compound>
Cc1ccccc1C(C/C(=N\O)C1CCSCC1)c1ccc(Br)cc1 (stereo not drawn) [Example 11]

>  <Assayed Target>
UniProtKB Q8TDU6

>  <Unit Tag>
µM

>  <EC50>
9.95

$$$$

[A] CC(=O)N1CCC(/C(CC(c2ccc(Br)cc2)c2ccccc2C)=N/O)CC1 (stereo not drawn) [Example 8]
[B] Cc1ccccc1[C@H](C/C(=N\O)C1CCC(=O)N(C)C1)c1ccc(S(C)(=O)=O)cc1 (single isomer, unassigned) [Example 4]
[C] Cc1ccccc1[C@H](C/C(=N\O)C1CCC(=O)N(C)C1)c1ccc(N2CCC(C(=O)O)CC2)cc1 (stereo partly drawn) [Example 5]
Hey, can you sort those compounds up there by EC50, smallest first? Provide the ranking by listing each label in its place in the requested order.
B, C, A

###

Molecular target: UniProtKB Q8TDU6
Assay: functional cAMP assay in CHO-dhfr(minus) cells expressing human GPBAR1 receptors
Conditions: CHO-dhfr(minus) cells expressing human GPBAR1, 30 min at 30° C.
Procedure: The cDNA of the human GPBAR1 receptor (Genbank: NM_170699 with the exception of a silent C:G mutation at position 339 from the start codon) was amplified by polymerase chain reaction (PCR) from human cDNA and inserted into pCineo (Promega) by standard methods (Current Protocols in Molecular Biology, Wiley Press, ed. Ausubel et al.). The final clone was verified by DNA sequence analysis. […] EC50 values were determined using Activity Base analysis (ID Business Solution, Limited). […]
pEC50: −log10 of the molar value.
Measure: pEC50

>  <Molecule>
Cc1ccccc1[C@H](C/C(=N\O)C1CCC(=O)N(C)C1)c1ccc(S(C)(=O)=O)cc1 (mixture of isomers) [Example 1]

>  <Endpoint Result>
6.93

$$$$

[1] Cc1ccccc1C(C/C(=N\O)C1CCOCC1)c1ccc(Br)cc1 (stereo not shown)
[2] Cc1ccccc1C(C/C(=N\O)C1CC(O)C1)c1ccc(Br)cc1 (stereo not shown)
[3] Cc1ccccc1[C@H](C/C(=N/O)C1CCC(=O)N(C)C1)c1ccc(S(C)(=O)=O)cc1 (stereo partly shown)
Order the records, beginning with the lowest pEC50 and ending with the highest. To answer, write out the labels according to the requested order.
3, 2, 1

###

Molecular target: human GPBAR1 receptor (Homo sapiens)
Test: functional cAMP assay in CHO-dhfr(minus) cells expressing human GPBAR1 receptors
Details: CHO-dhfr(minus) cells expressing human GPBAR1, 30 min at 30° C.
Measure: EC50 (nM)

Solved cases below.
>  <Compound>
Cc1ccccc1C(C/C(=N\O)[C@H]1CC[C@H](O)CC1)c1ccc(Br)cc1 (some centres unmarked)

>  <EC50 / nM>
2000

$$$$
>  <Compound>
Cc1ccccc1[C@H](C/C(=N\O)C1CCC(=O)N(C)C1)c1ccc(S(C)(=O)=O)cc1 (single isomer, unassigned) [Example 3]

>  <EC50 / nM>
145

$$$$
>  <Compound>
Cc1ccccc1C(C/C(=N\O)C1CCC(O)CC1)c1ccc(S(C)(=O)=O)cc1 (centres unmarked)

>  <EC50 / nM>
680

$$$$

[A] Cc1ccccc1[C@H](C/C(=N\O)C1CCC(=O)N(C)C1)c1ccc(-c2ccc(C(=O)O)cc2)cc1 (some centres unmarked)
[B] Cc1ccccc1C(C/C(=N\O)C1CCS(=O)(=O)CC1)c1ccc(Br)cc1 (centres unmarked)
Name the one with the greater EC50 value, either A or B as given. Give the label under which the chosen entry appears.
B
(B: 9730 nM, A: 558 nM)

###

Molecular target: human GPBAR1 receptor (Homo sapiens, UniProt Q8TDU6)
Test: functional cAMP assay in CHO-dhfr(minus) cells expressing human GPBAR1 receptors
Conditions: CHO-dhfr(minus) cells expressing human GPBAR1, 30 min at 30° C.
pEC50: −log10 of the molar value.
Measure: pEC50

>  <Molecule>
CS(=O)(=O)c1ccc(C(C/C(=N\O)C2CCOCC2)c2ccccc2)cc1 (stereo not drawn)

>  <pEC50>
6.10

$$$$

[A] Cc1ccccc1[C@H](C/C(=N\O)C1CCC(=O)N(C)C1)c1ccccc1 (stereo partly drawn)
[B] Cc1ccccc1C(C/C(=N\O)C1CCC(=O)CC1)c1ccc(Br)cc1 (stereo not drawn)
Which one would you say has the larger pEC50 value: A , or B ? State your choice using its label.
A
(A: 7.29, B: 6.22)
